# hepatic extraction ratio at 1 µM annotations
- ASSAY PROTOCOL: Metabolic stability in human liver microsomes assessed as hepatic blood flow at 1 uM preincubated with compound followed by NADPH addition by LC-MS/MS analysis
- Assay type: ADME, Microsome
- EXPERIMENTAL CONTEXT: read-out: QH
Reply: number alone, nothing else.

Form field hepatic extraction ratio at 1 µM, entry CN(C)C(=O)c1c[nH]c2ccccc12 : 0.25

Form field hepatic extraction ratio at 1 µM, entry Cn1c(NC(=O)c2cccnc2)cc2ccccc21 : 0.23

Form field hepatic extraction ratio at 1 µM, entry c1ccc2cc(CN3CCCCC3)ccc2c1 : 0.72

Form field hepatic extraction ratio at 1 µM, entry CN(C)C(=O)c1ccc2cccccc1-2 : 0.67

Form field hepatic extraction ratio at 1 µM, entry O=C(NCCO)c1ccc2[nH]cc(C(=O)c3ccccc3)c2c1 : 0.53

Form field hepatic extraction ratio at 1 µM, entry O=C(NCCc1c[nH]c2ccccc12)c1ccc2ccc(C(=O)c3ccccc3)c-2cc1 : 0.69
